Provenance of the data: ChEMBL document CHEMBL1255211

target: Receptor-type tyrosine-protein kinase FLT3 (Homo sapiens, UniProt P36888); experiment: Inhibition of FLT3 by time resolved fluorescence method
Sequence (P36888 whole entry): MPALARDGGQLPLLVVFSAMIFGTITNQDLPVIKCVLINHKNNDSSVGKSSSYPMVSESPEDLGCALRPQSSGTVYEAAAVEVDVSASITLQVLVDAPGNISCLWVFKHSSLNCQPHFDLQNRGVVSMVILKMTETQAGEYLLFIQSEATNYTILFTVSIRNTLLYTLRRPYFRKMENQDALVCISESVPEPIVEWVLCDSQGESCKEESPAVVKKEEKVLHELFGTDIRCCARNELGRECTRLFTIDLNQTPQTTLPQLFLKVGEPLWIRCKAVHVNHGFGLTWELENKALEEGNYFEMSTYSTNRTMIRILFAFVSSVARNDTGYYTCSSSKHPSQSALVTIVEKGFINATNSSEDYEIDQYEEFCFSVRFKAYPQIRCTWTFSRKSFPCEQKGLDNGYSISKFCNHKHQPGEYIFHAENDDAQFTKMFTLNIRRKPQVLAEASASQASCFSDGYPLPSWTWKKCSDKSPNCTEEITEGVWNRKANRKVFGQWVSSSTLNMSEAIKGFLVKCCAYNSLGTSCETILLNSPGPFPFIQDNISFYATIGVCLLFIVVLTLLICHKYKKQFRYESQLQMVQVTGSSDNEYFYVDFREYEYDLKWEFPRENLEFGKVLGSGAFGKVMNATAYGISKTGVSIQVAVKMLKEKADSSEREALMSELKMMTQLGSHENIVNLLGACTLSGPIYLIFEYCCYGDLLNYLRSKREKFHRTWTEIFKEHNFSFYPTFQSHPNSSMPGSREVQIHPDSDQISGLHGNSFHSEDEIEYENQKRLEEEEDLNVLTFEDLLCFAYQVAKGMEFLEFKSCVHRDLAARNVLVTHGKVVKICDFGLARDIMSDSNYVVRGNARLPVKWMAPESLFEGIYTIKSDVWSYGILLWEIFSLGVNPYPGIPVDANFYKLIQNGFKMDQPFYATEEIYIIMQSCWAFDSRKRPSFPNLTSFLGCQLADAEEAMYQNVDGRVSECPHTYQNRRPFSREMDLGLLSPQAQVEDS
Parameter: IC50 (µM)
Answers are plain numbers, in µM.

Batch request: IC50 for each of the following molecules.
1. Cc1cc(/C=C2/C(=O)Nc3ccc(F)cc32)c2cccccc1-2
2. Cc1cc(/C=C2\C(=O)Nc3ccc(F)cc32)c2ccccc(OCCN3CCOCC3)c1-2
3. Cc1cc(/C=C2\C(=O)Nc3ccc(F)cc32)c2ccccc(OCCN3CCC(N(C)C)CC3)c1-2
4. Cc1cc(/C=C2\C(=O)Nc3ccc(F)cc32)c2ccccc(OCCCN3CCOCC3)c1-2
5. Cc1cc(/C=C2\C(=O)Nc3ccc(F)c(F)c32)c2ccccc(OCCCN3CCOCC3)c1-2
6. CCN(CC)CCCOc1ccccc2c(/C=C3/C(=O)Nc4ccc(F)cc43)cc(C)c1-2

Found:
[0.06, 0.019, 0.018, 0.224, 0.012, 0.03]

Batch request: IC50 for each of the following molecules.
1. Cc1cc(/C=C2\C(=O)Nc3ncc(F)cc32)c2ccccc(OCCCN3CCOCC3)c1-2
2. CCN(CC)CCCOc1ccccc2c(/C=C3\C(=O)Nc4ccc(F)cc43)cc(C)c1-2

Found:
0.09
0.039
